# study.target: EPHB2 (UniProt P29323)
# Sequence (P29323 whole entry, looked up): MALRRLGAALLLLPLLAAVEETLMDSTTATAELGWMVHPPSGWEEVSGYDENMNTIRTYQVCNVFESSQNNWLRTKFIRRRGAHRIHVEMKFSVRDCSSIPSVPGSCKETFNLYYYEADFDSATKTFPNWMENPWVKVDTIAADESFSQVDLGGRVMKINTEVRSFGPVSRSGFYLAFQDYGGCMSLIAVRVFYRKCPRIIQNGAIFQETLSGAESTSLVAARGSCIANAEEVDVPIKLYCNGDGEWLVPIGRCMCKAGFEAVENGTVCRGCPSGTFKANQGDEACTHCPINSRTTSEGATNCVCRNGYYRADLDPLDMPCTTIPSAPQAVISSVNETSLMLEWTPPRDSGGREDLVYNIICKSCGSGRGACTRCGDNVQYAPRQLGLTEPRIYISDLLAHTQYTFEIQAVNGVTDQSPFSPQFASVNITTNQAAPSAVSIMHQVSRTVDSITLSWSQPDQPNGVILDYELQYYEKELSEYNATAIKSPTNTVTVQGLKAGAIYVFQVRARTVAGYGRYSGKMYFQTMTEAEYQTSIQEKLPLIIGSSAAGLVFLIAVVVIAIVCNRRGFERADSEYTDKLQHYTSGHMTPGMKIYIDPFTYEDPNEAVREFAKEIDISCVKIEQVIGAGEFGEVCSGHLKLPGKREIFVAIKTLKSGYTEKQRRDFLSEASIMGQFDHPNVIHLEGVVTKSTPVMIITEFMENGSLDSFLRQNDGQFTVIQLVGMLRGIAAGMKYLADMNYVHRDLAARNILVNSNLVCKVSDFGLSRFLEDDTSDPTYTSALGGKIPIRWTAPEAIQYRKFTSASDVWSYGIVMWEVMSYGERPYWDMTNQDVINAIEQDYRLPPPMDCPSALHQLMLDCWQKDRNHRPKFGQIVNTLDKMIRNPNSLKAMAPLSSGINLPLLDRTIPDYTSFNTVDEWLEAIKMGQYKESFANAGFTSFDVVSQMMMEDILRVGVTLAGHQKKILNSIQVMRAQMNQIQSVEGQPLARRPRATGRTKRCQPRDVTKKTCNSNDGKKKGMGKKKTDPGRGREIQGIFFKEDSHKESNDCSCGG
# assay: phosphorylation enrichment, bacterial display (enrichment ratio); higher = better substrate or ligand; peptides without Tyr show the background;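 also: 11-residue human phosphosite peptides and single-mutation variants displayed on the E. coli surface, counted by deep sequencing, each peptide's frequency after selection divided by its frequency in the unselected input library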;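 also: frequency after pTyr selection over input frequency; kinase dosed for 20-30% of maximal phosphorylation in three min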
quantity.measured: phosphorylation enrichment

q: GET phosphorylation enrichment where system = EPHB2 (UniProt P29323) and item = VYLGAYDCFLP [SLC22A5_Y486_R488C]
a: 8.08

q: Tell me its phosphorylation enrichment on EPHB2 (UniProt P29323): HLQDEYDFKCK [STAT1_Y170_D165H]
a: 0.585

q: Please report the measured phosphorylation enrichment for AELVQYYMEHH [PTPN11_Y80] tested on EPHB2 (UniProt P29323).
a: 1.01

q: Report the value of phosphorylation enrichment obtained on EPHB2 (UniProt P29323) for VVIVLYFSLWK [SLC6A2_Y249] .
a: 0.453

q: Print EPHB2 (UniProt P29323) phosphorylation enrichment for FADGVYQALEE [DUOX2_Y70_YF] .
a: 1.5

q: Under EPHB2 (UniProt P29323): report phosphorylation enrichment of NNIDFYKKTTN [FGFR2_Y657_YF] .
a: 0.397

q: Send back EPHB2 (UniProt P29323) phosphorylation enrichment of LGSVVYAHSKE [KCNQ2_Y226] only.
a: 0.437

q: # lookup: EPHB2 (UniProt P29323) phosphorylation enrichment, key = FQASFYRRGDR [LTK_Y677_R673Q_YF]
a: 0.486

q: Quote EPHB2 (UniProt P29323) phosphorylation enrichment for entry MRTMGYMPTEM [CABP5_Y62] .
a: 0.509

q: Report measured phosphorylation enrichment on EPHB2 (UniProt P29323); entry: CGSLLYGLVHQ [PRKCG_Y122]
a: 4.64

q: Under EPHB2 (UniProt P29323): report phosphorylation enrichment of CTTIHYNFMHN [TP53_Y234_C238H_YF] .
a: 0.54

q: Answer briefly: phosphorylation enrichment recorded on EPHB2 (UniProt P29323) for LNPDGYEKAFE [CPXM2_Y427_YF]
a: 0.988

q: Give measured phosphorylation enrichment for KDQGIYEDYVE [MYL6_Y86_T85I] (EPHB2 (UniProt P29323)).
a: 0.853

q: Fill in: phosphorylation enrichment on EPHB2 (UniProt P29323), entry SAPPSHEETVA [LITAF_Y23_Y23H]
a: 0.393

q: # return phosphorylation enrichment of TLKDVYDDGKY [RPS6KA3_Y483] (system: EPHB2 (UniProt P29323))
a: 0.497

q: Answer briefly: phosphorylation enrichment recorded on EPHB2 (UniProt P29323) for KKHIPHREHKS [CSNK1G2_Y206_Y206H]
a: 1.71

q: Please look at FGCTFYNQAIM [MCCC2_Y196_R193C] and tell me its recorded phosphorylation enrichment on EPHB2 (UniProt P29323).
a: 0.777

q: Using EPHB2 (UniProt P29323) as the test system, report measured phosphorylation enrichment of CLAQRYLIWEC [SCN5A_Y694_R689C] .
a: 0.646

q: Write phosphorylation enrichment of RELGEYGLQAF [ALDH2_Y497_YF] ; system used: EPHB2 (UniProt P29323)
a: 1.07

q: Lab note: EPHB2 (UniProt P29323) assay, enter phosphorylation enrichment for GVLDIYGFEIL [MYO1A_Y382] here
a: 0.541

q: Fetch value of phosphorylation enrichment on EPHB2 (UniProt P29323) for QNTGDYYDLYG [PTPN11_Y62] .
a: 17.8

q: Under EPHB2 (UniProt P29323), report phosphorylation enrichment for PQAVTYAEVKH [LILRB4_Y360_K362E]
a: 1.16

q: State measured phosphorylation enrichment of the sequence IDQDKYAVHFI [FLNA_Y2388_R2391H] with EPHB2 (UniProt P29323).
a: 0.547

q: Write phosphorylation enrichment of KPGLIYNKVNP [SPRED3_Y72_V71I] ; system used: EPHB2 (UniProt P29323)
a: 0.408

q: Check EPHB2 (UniProt P29323) data and give phosphorylation enrichment for DHAGTYGLGDR [MAPT_Y18] .
a: 0.304

q: Provide phosphorylation enrichment, system EPHB2 (UniProt P29323), entry EAVSIYQFHGQ [CBLC_Y402]
a: 1.62

q: Would you please give the reported phosphorylation enrichment of `SKDSAYVTWEP` with EPHB2 (UniProt P29323)?
a: 0.576

q: Tell me phosphorylation enrichment of VKANTYEKYWL [GATM_Y100_P105L] when tested on EPHB2 (UniProt P29323).
a: 0.5

q: Report phosphorylation enrichment on EPHB2 (UniProt P29323) for this entry: SVTCTYSPALD [TP53_Y126_N131D]
a: 0.816

q: Jot down phosphorylation enrichment (EPHB2 (UniProt P29323)) of QEALEYFMKQV [PIK3CA_Y1038_M1043V] .
a: 0.392

q: Please report the measured phosphorylation enrichment for VNCHQYDGLVG [ATP2A2_Y407_E412G] tested on EPHB2 (UniProt P29323).
a: 0.546

q: GET phosphorylation enrichment where system = EPHB2 (UniProt P29323) and item = NTGVYYDLYGG [PTPN11_Y63_D61V]
a: 5.04

q: For EPHB2 (UniProt P29323), give phosphorylation enrichment of the listed sequence: ADKAAYLQNLN [MYH1_Y389]
a: 0.52

q: Please report the measured phosphorylation enrichment for SGFESYGSSSY [RPA2_Y9] tested on EPHB2 (UniProt P29323).
a: 0.478

q: Please report phosphorylation enrichment with EPHB2 (UniProt P29323) for item QSMEPYTKQQL [STAT3_Y640_V637M] .
a: 0.66

q: // output phosphorylation enrichment; input IFHLSYHHNCE [PDE6B_Y227_L228H_YF] ; system EPHB2 (UniProt P29323)
a: 0.635

q: Jot down phosphorylation enrichment (EPHB2 (UniProt P29323)) of KLSFSYGWALQ [ALDOB_Y302_R304W] .
a: 0.764

q: Name the value of phosphorylation enrichment reported for EILDVYIFLGP [GAA_Y340_G335E] when tested on EPHB2 (UniProt P29323).
a: 0.889

q: Please report the measured phosphorylation enrichment for ILDEAYVMASM [EGFR_Y764_V769M] tested on EPHB2 (UniProt P29323).
a: 0.553

q: Tell me its phosphorylation enrichment on EPHB2 (UniProt P29323): RQSHNYLGGFA [SYK_Y47_R45H]
a: 0.537

q: Under EPHB2 (UniProt P29323), report phosphorylation enrichment for KSAAIYNPVIY [RHO_Y301]
a: 0.744

q: Report phosphorylation enrichment from EPHB2 (UniProt P29323) testing of SYCYRYRCAPR [SUMF1_Y344_A348P]
a: 0.418

q: // output phosphorylation enrichment; input NTGDYCDLYGG [PTPN11_Y63_Y63C] ; system EPHB2 (UniProt P29323)
a: 11.3

q: Answer briefly: phosphorylation enrichment recorded on EPHB2 (UniProt P29323) for EESREYDRLFE [PIK3R1_Y463_K459E_YF]
a: 0.681

q: Fill in: phosphorylation enrichment on EPHB2 (UniProt P29323), entry GGYNNYGYGSD [HNRNPH3_Y159_N163S]
a: 2.4

q: For EPHB2 (UniProt P29323), give phosphorylation enrichment of the listed sequence: YCRHNYGAVES [HLA-DRB1_Y112_V114A]
a: 0.623

q: Param request: phosphorylation enrichment | system EPHB2 (UniProt P29323) | item ARRHPYFFAPE [ALB_Y172_Y174F]
a: 0.635

q: Enter measured phosphorylation enrichment, system EPHB2 (UniProt P29323), for the sequence shown: ANSPVYVPTTR [GATA6_Y188_S184N]
a: 0.405

q: Using EPHB2 (UniProt P29323) as the test system, report measured phosphorylation enrichment of NAMRRYIEEFQ [MNS1_Y244] .
a: 0.459

q: State, for EPHB2 (UniProt P29323), measured phosphorylation enrichment of the sequence listed here: HLPAGYIIPLQ [GAA_Y822_R819P]
a: 0.28

q: Quote EPHB2 (UniProt P29323) phosphorylation enrichment for entry PPSGEYFGHCG [TRIP6_Y275_Q278H] .
a: 1.02

q: # return phosphorylation enrichment for RSAGKYDVYLI [MECP2_Y120] , test system: EPHB2 (UniProt P29323)
a: 0.77

q: Fill in phosphorylation enrichment for ANNQRYAFMPL [TMEM87B_Y460] tested with EPHB2 (UniProt P29323).
a: 0.591

q: Under EPHB2 (UniProt P29323), report phosphorylation enrichment for SEELHYYVQNH [UQCRC2_Y207_F208Y]
a: 0.788

q: System EPHB2 (UniProt P29323). Read-out phosphorylation enrichment. Item SRDDYYETIAM [NPY1R_Y347_D346Y] . Report value.
a: 1.53

q: Look up EPHB2 (UniProt P29323) data: phosphorylation enrichment of PSRKDYETFQP [CTNND2_Y1154_YF] , then report it.
a: 1.52

q: State measured phosphorylation enrichment of the sequence AGTIPYHAHLD [ASS1_Y291_L290P] with EPHB2 (UniProt P29323).
a: 0.369
